pest or weed control at 500 g/ha: recorded values
# System: green foxtail (Setaria viridis, SETVI)
# protocol: Post-emerge greenhouse herbicide test, phytotoxicity rating
# Assay type: in vivo
# particulars: Setaria viridis, post-emergence, 336 h, rate 500 g ai/ha, 14 days after application, scale 0-100
Please state the value followed by its unit.

# count of solved cases: 10
{"compound": "Nn1c(C(F)(F)F)cc(=O)n(-c2cc(Oc3ccccn3)c(Cl)cc2F)c1=O [Compound 9-15]", "pest or weed control at 500 g/ha": "100%"}
{"compound": "N#Cc1cccnc1Oc1cc(-n2c(=O)cc(C(F)(F)F)n(N)c2=O)c(F)cc1Cl [Compound 9-9]", "pest or weed control at 500 g/ha": "90%"}
{"compound": "Nn1c(C(F)(F)F)cc(=O)n(-c2cc(Oc3ncccc3C(F)(F)F)c(Cl)cc2F)c1=O [Compound 9-7]", "pest or weed control at 500 g/ha": "70%"}
{"compound": "Nn1c(C(F)(F)F)cc(=O)n(-c2cc(Oc3cccc(Cl)n3)c(Cl)cc2F)c1=O [Compound 9-5]", "pest or weed control at 500 g/ha": "90%"}
{"compound": "Nn1c(C(F)(F)F)cc(=O)n(-c2cc(Oc3ccccc3C(F)(F)F)c(Cl)cc2F)c1=O [Compound 9-24]", "pest or weed control at 500 g/ha": "95%"}
{"compound": "Nn1c(C(F)(F)F)cc(=O)n(-c2cc(Oc3cc(C(F)(F)F)ccn3)c(Cl)cc2F)c1=O [Compound 9-8]", "pest or weed control at 500 g/ha": "75%"}
{"compound": "Nn1c(C(F)(F)F)cc(=O)n(-c2cc(Oc3ncccn3)c(Cl)cc2F)c1=O [Compound 9-16]", "pest or weed control at 500 g/ha": "100%"}
{"compound": "Nn1c(C(F)(F)F)cc(=O)n(-c2cc(Oc3cc([N+](=O)[O-])cc(C(F)(F)F)c3)c(Cl)cc2F)c1=O [Compound 9-23]", "pest or weed control at 500 g/ha": "10%"}
{"compound": "Nn1c(C(F)(F)F)cc(=O)n(-c2cc(Oc3ccccc3)c(Cl)cc2F)c1=O [Compound 9-26]", "pest or weed control at 500 g/ha": "100%"}
{"compound": "Nn1c(C(F)(F)F)cc(=O)n(-c2cc(Oc3ccc(Cl)cn3)c(Cl)cc2F)c1=O [Compound 9-3]", "pest or weed control at 500 g/ha": "95%"}

Here is the next item to consider.
Query: pest or weed control at 500 g/ha; subject: N#Cc1ccc(Oc2cc(-n3c(=O)cc(C(F)(F)F)n(N)c3=O)c(F)cc2Cl)nc1 [Compound 9-10]
70%

* * *

# System: redroot pigweed (Amaranthus retroflexus, AMARE)
# protocol: Post-emerge greenhouse herbicide test, phytotoxicity rating
# Format: in vivo
# particulars: 63 g al/ha, 14 days after application
measurement-type: AMARE phytotoxicity rating (0-100)

# count of solved cases: 5
{"compound": "CN1CC(=O)N(c2cc(Oc3ncccn3)c(Cl)cc2F)C1=O [Compound 8-3]", "AMARE phytotoxicity rating (0-100)": 20}
{"compound": "COc1nc(OC)nc(Oc2cc(-c3nc(C)n(C(F)F)c3Cl)c(F)cc2Cl)n1 [Compound 2-4]", "AMARE phytotoxicity rating (0-100)": 0}
{"compound": "O=c1n(CCCF)nnn1-c1cc(Oc2ncccc2C(F)(F)F)c(Cl)cc1F [Compound 6-6]", "AMARE phytotoxicity rating (0-100)": 70}
{"compound": "Cn1nc(-c2cc(Oc3ncccn3)c(Cl)cc2F)c(Cl)c1C(F)(F)F [Compound 1-7]", "AMARE phytotoxicity rating (0-100)": 100}
{"compound": "N#Cc1cc([N+](=O)[O-])ccc1Oc1cc(-n2c(=O)n3n(c2=S)CCCC3)c(F)cc1Cl [Compound 8-12]", "AMARE phytotoxicity rating (0-100)": 70}

Query: AMARE phytotoxicity rating (0-100); subject: COc1nc(OC)nc(Oc2cc(-c3nn(C)c(C(F)(F)F)c3Cl)c(F)cc2Cl)n1 [Compound 1-8]
20

Query: AMARE phytotoxicity rating (0-100); subject: O=c1n(CCCF)nnn1-c1cc(Oc2ncc(Br)cn2)c(Cl)cc1F [Compound 6-16]
70

* * *

# Test system: sicklepod (Cassia obtusifolia, CASOB)
# protocol: Pre-emerge greenhouse herbicide test, phytotoxicity rating
# Format: in vivo
# particulars: Rate 125 g al/ha, 14 days after application, rating scale 0-100
CASOB phytotoxicity rating: recorded values
Respond with the number and no other words.

# count of solved cases: 3
{"structure-smiles-string": "COc1cc(Oc2cc(-n3c(=O)n4n(c3=S)CCCC4)c(F)cc2Cl)nc(OC)n1", "tested-on": "sicklepod (Cassia obtusifolia, CASOB)", "CASOB phytotoxicity rating": 30}
{"structure-smiles-string": "COc1cc(OC)nc(Oc2cc(-n3c(=O)n4n(c3=S)CCCC4)c(F)cc2Cl)n1", "tested-on": "sicklepod (Cassia obtusifolia, CASOB)", "CASOB phytotoxicity rating": 40}
{"structure-smiles-string": "Cc1nsc(Oc2cc(-n3c(=O)n4n(c3=S)CCCC4)c(F)cc2Cl)c1[N+](=O)[O-]", "tested-on": "sicklepod (Cassia obtusifolia, CASOB)", "CASOB phytotoxicity rating": 30}

Here is the next item to consider.
Query: CASOB phytotoxicity rating; subject: `O=c1n(-c2cc(Oc3nccc(Cl)n3)c(Cl)cc2F)c(=S)n2n1CCCC2`
30

* * *

# Test system: velvetleaf (Abutilon theophrasti, ABUTH)
# protocol: Post-emerge greenhouse herbicide test, phytotoxicity rating
# Type: in vivo
# particulars: Abutilon theophrasti, post-emergence, 336 h, rate 500 g ai/ha, 14 days after application, scale 0-100
measurement-type: pest or weed control at 500 g/ha (%)
Answer in %, number only, no unit symbol.

Hello, I am looking for reported pest or weed control at 500 g/ha with velvetleaf (Abutilon theophrasti, ABUTH) for Nn1c(C(F)(F)F)cc(=O)n(-c2cc(Oc3ccccc3[N+](=O)[O-])c(Cl)cc2F)c1=O [Compound 9-21] . Could you help?
100

Hello, I am looking for reported pest or weed control at 500 g/ha with velvetleaf (Abutilon theophrasti, ABUTH) for Nn1c(C(F)(F)F)cc(=O)n(-c2cc(Oc3ccc([N+](=O)[O-])cc3C(F)(F)F)c(Cl)cc2F)c1=O [Compound 9-22] . Could you help?
100

Hello, I am looking for reported pest or weed control at 500 g/ha with velvetleaf (Abutilon theophrasti, ABUTH) for N#Cc1cccnc1Oc1cc(-n2c(=O)cc(C(F)(F)F)n(N)c2=O)c(F)cc1Cl [Compound 9-9] . Could you help?
100

* * *

pest or weed control at 63 g/ha: recorded values
# Tested on: redroot pigweed (Amaranthus retroflexus, AMARE)
# protocol: Post-emerge greenhouse herbicide test, phytotoxicity rating
# Assay type: in vivo
# particulars: Amaranthus retroflexus, post-emergence, 336 h, rate 63 g ai/ha, 14 days after application, scale 0-100
Please state the value followed by its unit.

{"compound": "Nn1c(C(F)(F)F)cc(=O)n(-c2cc(Oc3ncccc3[N+](=O)[O-])c(Cl)cc2F)c1=O [Compound 9-1]", "tested-on": "redroot pigweed (Amaranthus retroflexus, AMARE)", "pest or weed control at 63 g/ha": "100%"}
{"compound": "O=c1n(-c2cc(Oc3ncccn3)c(Cl)cc2F)c(=S)n2n1CCCC2 [Compound 8-29]", "tested-on": "redroot pigweed (Amaranthus retroflexus, AMARE)", "pest or weed control at 63 g/ha": "100%"}
{"compound": "Nn1c(C(F)(F)F)cc(=O)n(-c2cc(Oc3ccccc3)c(Cl)cc2F)c1=O [Compound 9-26]", "tested-on": "redroot pigweed (Amaranthus retroflexus, AMARE)", "pest or weed control at 63 g/ha": "100%"}
{"compound": "Nn1c(C(F)(F)F)cc(=O)n(-c2cc(Oc3ccc(Cl)cn3)c(Cl)cc2F)c1=O [Compound 9-3]", "tested-on": "redroot pigweed (Amaranthus retroflexus, AMARE)", "pest or weed control at 63 g/ha": "100%"}
{"compound": "Nn1c(C(F)(F)F)cc(=O)n(-c2cc(Oc3cc(C(F)(F)F)ccn3)c(Cl)cc2F)c1=O [Compound 9-8]", "tested-on": "redroot pigweed (Amaranthus retroflexus, AMARE)", "pest or weed control at 63 g/ha": "100%"}

Query: pest or weed control at 63 g/ha; subject: N#Cc1cccnc1Oc1cc(-n2c(=O)cc(C(F)(F)F)n(N)c2=O)c(F)cc1Cl [Compound 9-9]
100%

Query: pest or weed control at 63 g/ha; subject: Nn1c(C(F)(F)F)cc(=O)n(-c2cc(Oc3cc([N+](=O)[O-])cc(C(F)(F)F)c3)c(Cl)cc2F)c1=O [Compound 9-23]
85%

Query: pest or weed control at 63 g/ha; subject: Nn1c(C(F)(F)F)cc(=O)n(-c2cc(Oc3nccc(Cl)n3)c(Cl)cc2F)c1=O [Compound 9-17]
95%
